TESTED_SYSTEM: MDM2 (Homo sapiens)
ASSAY_SUMMARY: MDM2 binding screen of Libraries 3 and 4: displacement of fluorescent probe F-M8 at 750 nM macrocycle
SETTINGS: Panel b, Library 3: 63 scaffolds combinatorially acylated with 15 carboxylic acids at 30 picomole scale; displacement of fluorescent peptide probe; macrocycle 750 nM
Is fraction of fluorescent probe displaced at least 0.03? Then Met. If not, Not met.

- Cn1cc(C[C@@H]2NC(=O)[C@@H](CNC(=O)/C=C/c3ccc(Cl)cc3)NC(=O)[C@@H]3CN(CCO3)C(=O)CCSSCCNC2=O)c2ccccc21: Not met
- O=C(NC[C@@H]1NC(=O)[C@H]2CCCN(C2)C(=O)CCSSCCNC(=O)[C@H](Cc2c[nH]c3ccccc23)NC1=O)c1ccc2ccccc2c1: Met
- O=C(CCS(=O)(=O)c1ccccc1)NC[C@H]1NC(=O)[C@H]2CCCN(C2)C(=O)CCSSCCNC(=O)[C@H](Cc2ccc3ccccc3c2)NC1=O: Met
- CC(Oc1cccc(Cl)c1)C(=O)NCCN1CC(=O)N[C@@H](Cc2cccc3ccccc23)C(=O)NCCSSCCC(=O)NCC2(CC2)C1=O (some centres unmarked): Not met
- CN1C(=O)[C@@H](CNC(=O)/C=C/c2ccncc2)NC(=O)C2(CC2)CNC(=O)CCSSCCNC(=O)[C@@H]1Cc1c[nH]c2ccccc12: Not met

* * *

TESTED_SYSTEM: MDM2 (Homo sapiens, UniProt Q00987)
Sequence (Q00987 whole entry): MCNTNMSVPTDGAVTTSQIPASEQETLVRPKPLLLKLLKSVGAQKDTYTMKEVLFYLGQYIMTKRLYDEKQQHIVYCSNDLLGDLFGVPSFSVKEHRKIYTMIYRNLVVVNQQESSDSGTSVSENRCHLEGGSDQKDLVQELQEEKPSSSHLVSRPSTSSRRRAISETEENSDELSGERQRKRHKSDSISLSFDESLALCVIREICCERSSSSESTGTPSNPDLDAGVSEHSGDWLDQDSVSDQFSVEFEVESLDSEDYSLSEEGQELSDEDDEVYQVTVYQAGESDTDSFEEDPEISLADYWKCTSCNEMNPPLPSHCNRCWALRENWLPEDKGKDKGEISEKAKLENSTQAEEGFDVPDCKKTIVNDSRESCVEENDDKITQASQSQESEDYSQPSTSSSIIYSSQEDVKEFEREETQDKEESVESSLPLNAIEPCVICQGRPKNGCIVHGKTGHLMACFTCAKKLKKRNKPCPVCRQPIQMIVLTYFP
ASSAY_SUMMARY: MDM2 binding screen: displacement of fluorescent p53 peptide probe FP53 (fluorescence polarization)
SETTINGS: Acid 25; initial screen; crude macrocycle reactions
Numbered stars: 1 amine (or outer) side, 2 acyl side, 3 side chain; on linkers, the order of the positions; unused ones are H or OH. Bridge positions count the residues as written; N and C are the ends. Square brackets hold non-standard residues; d marks the D form. Peptide text beside a SMILES is read from it. * marks the point of attachment. Benzoyl(4-Cl) = O=C(c1ccc(Cl)cc1)*; Cysteamide = C(CS[*:3])N[*:1]; Dap = NC[C@H](N)C(=O)O; Mpa = O=C(O)CCS
ASSAY_METRIC: fraction fluorescent probe displaced, Screen

• O=C1CCSSCCNC(=O)C2(CCN(C(=O)c3ccc(Cl)cc3)CC2)NC(=O)[C@H](Cc2ccccc2)NC(=O)CCN1 [X B2 F D6 Acid 25] = -0.17
• O=C1NCCSSCCC(=O)N2CCN(C(=O)c3ccc(Cl)cc3)CC2C(=O)N2CCCC2C(=O)NC1Cc1ccccc1 (stereo not drawn) [X D7 B1 F Acid 25] = 0.0569
• O=C1CCNC(=O)[C@H](CNC(=O)c2ccc(Cl)cc2)NC(=O)[C@H](Cc2ccccc2)NC(=O)CCSSCCN1 [X F D3 B2 Acid 25] = 0.19
• O=C1CCSSCCNC(=O)c2cccc(c2)CNC(=O)[C@H](CNC(=O)c2ccc(Cl)cc2)NC(=O)[C@H](Cc2ccccc2)N1 [X F D3 B5 Acid 25] = 0.0569
• O=C(NC[C@@H]1NC(=O)[C@H]2CCCN(C2)C(=O)CCSSCCNC(=O)[C@H](Cc2ccccc2)NC1=O)c1ccc(Cl)cc1 [X B4 D3 F Acid 25] = 0.09
• O=C(NCC1NC(=O)C(Cc2c[nH]c3ccccc23)NC(=O)C2CCCN(C2)C(=O)CCSSCCNC1=O)c1ccc(Cl)cc1 (stereo not drawn) [X B4 W D3 Acid 25] = 0.09
• O=C1CCSSCCNC(=O)[C@@H]2C[C@H](NC(=O)c3ccc(Cl)cc3)CN2C(=O)[C@H](Cc2ccccc2)NC(=O)c2cccc(c2)CN1 [X B5 F D5 Acid 25] = 0.0244
• O=C1CCSSCCNC(=O)[C@H](Cc2c[nH]c3ccccc23)NC(=O)[C@H](CNC(=O)c2ccc(Cl)cc2)NC(=O)CCN1 [X B2 D3 W Acid 25] = 0.19
• O=C(NC[C@@H]1NC(=O)[C@H](Cc2ccccc2)NC(=O)[C@@H]2CCCN2C(=O)CCSSCCNC1=O)c1ccc(Cl)cc1 [X B1 F D3 Acid 25] ([Mpa]PF[Dap](Benzoyl(4-Cl))-Cysteamide; disulfide 1-C) = 0.09
• O=C1CCSSCCNC(=O)[C@H](Cc2ccccc2)NC(=O)[C@H](CNC(=O)c2ccc(Cl)cc2)NC(=O)c2cccc(c2)CN1 [X B5 D3 F Acid 25] = 0.0244
• O=C1CCSSCCNC(=O)C2CN(C(=O)c3ccc(Cl)cc3)CCN2C(=O)C(Cc2c[nH]c3ccccc23)NC(=O)c2cccc(c2)CN1 (stereo not drawn) [X B5 W D7 Acid 25] = 0.12
• O=C1CCSSCCNC(=O)c2cccc(c2)CNC(=O)C2(CCN(C(=O)c3ccc(Cl)cc3)CC2)NC(=O)C(Cc2c[nH]c3ccccc23)N1 (stereo not drawn) [X W D6 B5 Acid 25] = 0.15

* * *

TESTED_SYSTEM: thrombin (Homo sapiens)
Construct: consists of two polypeptide chains of 36 (light chain) and 259 amino acid
ASSAY_SUMMARY: Thrombin inhibition screen of crude macrocycle reactions (residual thrombin activity, fluorogenic substrate Z-Gly-Gly-Arg-AMC)
Assay type: biochemical
SETTINGS: 10 µM macrocycle concentration; macrocycles containing acid 14; crude reaction; original screen
ASSAY_METRIC: % thrombin activity, Original screen

- C[C@H]1NC(=O)CCSSCCNC(=O)[C@H]2CCCN(C2)C(=O)[C@H](CCCCNC(=O)c2ccc(Cl)s2)NC1=O [X a D1 B4]: 107.0%
- O=C1CCSSCCNC(=O)C2CC(NC(=O)c3ccc(Cl)s3)CN2C(=O)C2CCCN(C2)C(=O)C(Cc2ccccc2)N1 (stereo not shown): 91.9%
- O=C1CCSSCCNC(=O)C2(CC2)CNC(=O)[C@H](CO)NC(=O)[C@H](CCCCNC(=O)c2ccc(Cl)s2)N1 [X D1 S B6]: 97.6%
- O=C1CCSSCCNC(=O)C(Cc2c[nH]c3ccccc23)NC(=O)C(CNC(=O)c2ccc(Cl)s2)NC(=O)C2(CC2)CN1 (stereo not shown): 92.5%

* * *

TESTED_SYSTEM: MDM2 (Homo sapiens, UniProt Q00987)
ASSAY_SUMMARY: MDM2 binding screen: displacement of fluorescent p53 peptide probe FP53 (fluorescence polarization)
SETTINGS: 10 µM macrocycle concentration; crude acylated macrocycle (scaffold Mpa-AA1-AA2-AA3 x carboxylic acid); p53-based fluorescent peptide, human MDM2
Numbered stars: 1 amine (or outer) side, 2 acyl side, 3 side chain; on linkers, the order of the positions; unused ones are H or OH. Bridge positions count the residues as written; N and C are the ends. Square brackets hold non-standard residues; d marks the D form. Peptide text beside a SMILES is read from it. * marks the point of attachment. Benzoyl(3,5-diOMe) = COc1cc(OC)cc(C(=O)*)c1; 1,2,3Thiadiazole5CO(4-Me) = Cc1nnsc1C(=O)*; Benzoyl(4-OMe) = COc1ccc(C(=O)*)cc1; Benzoyl(3-Cl) = O=C(c1cccc(Cl)c1)*; Phenoxyacetyl = O=C(COc1ccccc1)*; X14 = O=C(C1(c2ccccc2)CCCCC1)*; Cysteamide = C(CS[*:3])N[*:1]; X3 = O=C(Cc1c[nH]c2ccccc12)*; X1 = O=C(/C=C/c1ccccc1)*; 2Furoyl = O=C(c1ccco1)*; Dap = NC[C@H](N)C(=O)O; Mpa = O=C(O)CCS
Is fraction fluorescent probe displaced at least -0.03? Then Yes. If not, No.

• Cc1nnsc1C(=O)NC[C@@H]1NC(=O)[C@@H]2CCCN2C(=O)CCSSCCNC(=O)[C@H](Cc2ccccc2)NC1=O [X-B1-D3-F + A15] ([Mpa]P[Dap](1,2,3Thiadiazole5CO(4-Me))F-Cysteamide; disulfide 1-C) = No
• O=C(Cc1c[nH]c2ccccc12)NC[C@@H]1NC(=O)[C@@H]2CCCN2C(=O)CCSSCCNC(=O)[C@H](Cc2ccccc2)NC1=O [X-B1-D3-F + A12] ([Mpa]P[Dap](X3)F-Cysteamide; disulfide 1-C) = Yes
• O=C(/C=C/c1ccccc1)NC[C@@H]1NC(=O)[C@@H]2CCCN2C(=O)CCSSCCNC(=O)[C@H](Cc2ccccc2)NC1=O [X-B1-D3-F + A91] ([Mpa]P[Dap](X1)F-Cysteamide; disulfide 1-C) = Yes
• O=C(COc1ccccc1)NC[C@@H]1NC(=O)[C@@H]2CCCN2C(=O)CCSSCCNC(=O)[C@H](Cc2c[nH]c3ccccc23)NC1=O [X-B1-D3-W + A13] ([Mpa]P[Dap](Phenoxyacetyl)W-Cysteamide; disulfide 1-C) = Yes
• O=C(NC[C@@H]1NC(=O)[C@@H]2CCCN2C(=O)CCSSCCNC(=O)[C@H](Cc2c[nH]c3ccccc23)NC1=O)c1cccc(Cl)c1 [X-B1-D3-W + A17] ([Mpa]P[Dap](Benzoyl(3-Cl))W-Cysteamide; disulfide 1-C) = Yes
• COc1cc(OC)cc(C(=O)NC[C@@H]2NC(=O)[C@@H]3CCCN3C(=O)CCSSCCNC(=O)[C@H](Cc3c[nH]c4ccccc34)NC2=O)c1 [X-B1-D3-W + A4] ([Mpa]P[Dap](Benzoyl(3,5-diOMe))W-Cysteamide; disulfide 1-C) = Yes
• O=C1NCCSSCCC(=O)N2CCC[C@H]2C(=O)N[C@@H](CNC(=O)C2(c3ccccc3)CCCCC2)C(=O)N[C@H]1Cc1c[nH]c2ccccc12 [X-B1-D3-W + A98] ([Mpa]P[Dap](X14)W-Cysteamide; disulfide 1-C) = Yes
• O=C(NC[C@@H]1NC(=O)[C@@H]2CCCN2C(=O)CCSSCCNC(=O)[C@H](Cc2ccccc2)NC1=O)c1ccco1 [X-B1-D3-F + A16] ([Mpa]P[Dap](2Furoyl)F-Cysteamide; disulfide 1-C) = No
• COc1ccc(C(=O)NC[C@@H]2NC(=O)[C@@H]3CCCN3C(=O)CCSSCCNC(=O)[C@H](Cc3ccccc3)NC2=O)cc1 [X-B1-D3-F + A71] ([Mpa]P[Dap](Benzoyl(4-OMe))F-Cysteamide; disulfide 1-C) = No

Values were extracted from paper PMC9250534.
